assay: Half-life in rat at 1 mg/kg, po; assay type: ADME, organism-based; details: in vivo
METRIC NAME: half-life (h)

INSERT INTO measurements (entry_smiles, metric_name, scale_unit, assay_value) VALUES
  ('C[C@]1(CO)Cc2cc(NC(=O)c3cnn4cccnc34)c(N3CCOCC3)cc2O1', 'half-life', 'h', 3.8);

###

assay: Oral bioavailability in mouse at 300 mg/kg administered as suspension in MCT; type: ADME, organism-based; conditions: in vivo
METRIC NAME: bioavailability (%)

INSERT INTO assay_data (entry_smiles, metric_name, assay_value) VALUES
  ('C[C@]1(CO)Cc2cc(NC(=O)c3cnn4cccnc34)c(N3CCOCC3)cc2O1', 'bioavailability', 22);

###

biological target: Interleukin-1 receptor-associated kinase 4 (Homo sapiens, UniProt Q9NWZ3); assay: Inhibition of IRAK4 in human THP1-Xblue-MD2-CD14 cells assessed as reduction in LPS-induced NFkappaB transcription by measuring alkaline phosphatase level preincubated for 1 hr followed by LPS stimulation and measured after 20 hrs by quanti-blue reagent based reporter assay
METRIC NAME: IC50 (µM)

INSERT INTO results (compound, relational_operator, assay_value) VALUES
  ('CN1CCC2(CC1)Cc1cc(NC(=O)c3cnn4cccnc34)c(N3CCOCC3)cc1O2', '=', 0.23),
  ('O=C(Nc1cc2oc(N3CCOCC3)nc2cc1N1CCC(CO)CC1)c1cnn2cccnc12', '=', 0.06),
  ('CC1(C)Cc2cc(NC(=O)c3cnn4cccnc34)c(N3CCC(C(O)C(F)(F)F)CC3)cc2O1 (stereo not given)', '=', 0.056),
  ('O=C(Nc1cc2sc(N3CCOCC3)nc2cc1N1CCOCC1)c1cnn2cccnc12', '=', 0.076),
  ('CN(C)c1nc2cc(N3CCC(CO)CC3)c(NC(=O)c3cnn4cccnc34)cc2s1', '=', 0.053),
  ('CC1(C)Cc2cc(NC(=O)c3cnn4cccnc34)c(N3CCNCC3)cc2O1', '=', 0.056),
  ('CC1(C)Cc2cc(NC(=O)c3cnn4cccnc34)c(N3CCN(CC(N)=O)CC3)cc2O1', '=', 0.025),
  ('CC1(C)Cc2cc(NC(=O)c3cnn4cc(O)cnc34)c(N3CCOCC3)cc2O1', '=', 0.33),
  ('CC1(C)Cc2cc(NC(=O)c3cnn4cccnc34)c(N3CCN(CCO)CC3)cc2O1', '=', 0.097),
  ('CNC(=O)CN1CCN(c2cc3c(cc2NC(=O)c2cnn4cccnc24)CC(C)(C)O3)CC1', '=', 0.06),
  ('COc1cc2ncccc2cc1NC(=O)c1cnn2cccnc12', '=', 0.37),
  ('CC1(C)Cc2cc(NC(=O)c3cnn4cccnc34)c(N3CCC(C(N)=O)CC3)cc2O1', '=', 0.053),
  ('CC1(C)Cc2cc(NC(=O)c3cnn4cc(C#N)cnc34)c(N3CCOCC3)cc2O1', '=', 0.084),
  ('CC1(C)Cc2cc(NC(=O)c3cnn4cc(CO)cnc34)c(N3CCOCC3)cc2O1', '=', 0.066),
  ('CC1(C)Cc2cc(NC(=O)c3cnn4c(O)ccnc34)c(N3CCOCC3)cc2O1', '>', 20),
  ('CC1(C)Cc2cc(NC(=O)c3cnn4cc(C(N)=O)cnc34)c(N3CCOCC3)cc2O1', '=', 0.056),
  ('CC1(C)Cc2cc(NC(=O)c3cnn4cccnc34)c(N3CCOCC3)cc2O1', '=', 0.17),
  ('O=C(Nc1cc2cccnc2cc1N1CCC(CO)CC1)c1cnn2cccnc12', '=', 0.035),
  ('CC1(C)Cc2cc(NC(=O)c3cnn4cc(C5CC5)cnc34)c(N3CCOCC3)cc2O1', '>', 20),
  ('O=C(Nc1cc2[nH]cnc2cc1N1CCC(CO)CC1)c1cnn2cccnc12', '=', 0.33);

###

experiment: Lipophilicity, log D of the compound; type: physicochemical; conditions: octanol/water
METRIC NAME: logD

INSERT INTO measurements (entry_smiles, assay_value) VALUES
  ('O=C(Nc1cc2cccnc2cc1N1CCC(CO)CC1)c1cnn2cccnc12', 3.1),
  ('NCC1CCN(c2cc3ncccc3cc2NC(=O)c2cnn3cccnc23)CC1', 0.79);

###

test: Protein binding in dog plasma at 5 uM incubated for 4 hrs by LC-MS/MS analysis; assay type: ADME, cell-free, Canis lupus familiaris; conditions: read-out: PPB (converted)
METRIC NAME: fraction unbound at 4 h, 5 µM

INSERT INTO results (entry_smiles, metric_name, assay_value) VALUES
  ('C[C@]1(CO)Cc2cc(NC(=O)c3cnn4cccnc34)c(N3CCOCC3)cc2O1', 'fraction unbound at 4 h, 5 µM', 0.34);

###

Items are presented alongside their recorded Ki.
Molecular target: Interleukin-1 receptor-associated kinase 4 (Homo sapiens)
Sequence (Q9NWZ3 whole entry): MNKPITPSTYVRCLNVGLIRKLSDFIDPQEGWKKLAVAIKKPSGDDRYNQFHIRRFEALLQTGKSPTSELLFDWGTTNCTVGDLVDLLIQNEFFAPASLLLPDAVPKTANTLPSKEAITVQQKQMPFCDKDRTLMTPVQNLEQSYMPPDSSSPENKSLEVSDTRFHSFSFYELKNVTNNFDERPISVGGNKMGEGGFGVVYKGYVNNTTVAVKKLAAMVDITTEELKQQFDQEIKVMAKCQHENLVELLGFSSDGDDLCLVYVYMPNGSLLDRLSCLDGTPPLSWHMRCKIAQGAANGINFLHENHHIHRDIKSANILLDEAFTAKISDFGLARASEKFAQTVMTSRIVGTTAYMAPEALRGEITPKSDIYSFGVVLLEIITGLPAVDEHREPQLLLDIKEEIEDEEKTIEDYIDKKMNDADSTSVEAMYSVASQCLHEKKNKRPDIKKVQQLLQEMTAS
Test: Inhibition of recombinant IRAK4 (unknown origin) using KKARFSRFAGSSPSQSSMVAR as substrate in presence of [gamma33P]-ATP by liquid scintillation counting method
METRIC NAME: Ki (nM)

INSERT INTO measurements (entry_smiles, target, metric_name, relational_operator, assay_value) VALUES
  ('COc1cc2cc[nH]c2cc1NC(=O)c1cnn2cccnc12', 'Interleukin-1 receptor-associated kinase 4 (Homo sapiens)', 'Ki', '=', 790),
  ('O=C(Nc1cc2cccnc2cc1N1CCCCC1)c1cnn2cccnc12', 'Interleukin-1 receptor-associated kinase 4 (Homo sapiens)', 'Ki', '=', 8),
  ('COc1cc2cccnc2cc1NC(=O)c1cnn2cccnc12', 'Interleukin-1 receptor-associated kinase 4 (Homo sapiens)', 'Ki', '>', 30000),
  ('COc1cc2ccccc2cc1NC(=O)c1cnn2cccnc12', 'Interleukin-1 receptor-associated kinase 4 (Homo sapiens)', 'Ki', '=', 610);

###

experiment: Oral bioavailability in mouse at 300 mg/kg administered as suspension in 10% captisol; type: ADME, organism-based; settings: in vivo
METRIC NAME: bioavailability

INSERT INTO results (entry_smiles, metric_name, assay_value) VALUES
  ('C[C@]1(CO)Cc2cc(NC(=O)c3cnn4cccnc34)c(N3CCOCC3)cc2O1', 'bioavailability', '33%');

###

assay: Cmax in rat at 1 mg/kg, po; assay type: ADME, organism-based; design: dose 1 mg/kg, route oral; conditions: in vivo
METRIC NAME: Cmax

INSERT INTO results (entry_smiles, assay_value) VALUES
  ('C[C@]1(CO)Cc2cc(NC(=O)c3cnn4cccnc34)c(N3CCOCC3)cc2O1', '400 nM');

###

molecular target: Interleukin-1 receptor-associated kinase 1 (Homo sapiens); assay: Inhibition of human recombinant full length N-terminal His6-tagged IRAK1 (Argl94 to Ser712 residues) expressed in insect cells using H-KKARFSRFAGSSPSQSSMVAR as substrate incubated for 60 mins by fluorescence polarisation assay
Sequence (P51617 whole entry): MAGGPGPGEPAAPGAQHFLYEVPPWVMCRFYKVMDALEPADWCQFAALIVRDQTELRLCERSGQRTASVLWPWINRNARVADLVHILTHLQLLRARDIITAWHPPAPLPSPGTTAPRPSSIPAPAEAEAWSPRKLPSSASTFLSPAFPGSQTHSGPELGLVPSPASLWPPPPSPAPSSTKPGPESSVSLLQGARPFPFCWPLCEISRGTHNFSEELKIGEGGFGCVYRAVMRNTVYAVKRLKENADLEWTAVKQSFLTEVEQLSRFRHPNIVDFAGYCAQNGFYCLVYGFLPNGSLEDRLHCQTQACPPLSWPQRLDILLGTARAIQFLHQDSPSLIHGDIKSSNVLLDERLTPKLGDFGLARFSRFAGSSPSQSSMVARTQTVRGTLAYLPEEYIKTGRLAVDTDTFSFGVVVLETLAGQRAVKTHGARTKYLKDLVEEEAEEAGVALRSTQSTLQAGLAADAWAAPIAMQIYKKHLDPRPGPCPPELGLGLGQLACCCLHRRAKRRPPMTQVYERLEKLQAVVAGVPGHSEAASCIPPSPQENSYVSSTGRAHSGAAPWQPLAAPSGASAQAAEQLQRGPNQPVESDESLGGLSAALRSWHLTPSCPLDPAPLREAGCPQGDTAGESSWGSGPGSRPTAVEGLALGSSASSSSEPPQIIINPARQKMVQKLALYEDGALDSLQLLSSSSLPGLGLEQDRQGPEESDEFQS
pKi: −log10 of the molar value.
METRIC NAME: pKi

INSERT INTO assay_data (entry_smiles, metric_name, relational_operator, assay_value) VALUES
  ('O=C(Nc1cc2[nH]c(N3CCOCC3)nc2cc1N1CCC(CO)CC1)c1cnn2cccnc12', 'pKi', '<', 5.26),
  ('NCC1CCN(c2cc3ncccc3cc2NC(=O)c2cnn3cccnc23)CC1', 'pKi', '=', 6.29),
  ('O=C(Nc1cc2cccnc2cc1N1CCC(CO)CC1)c1cnn2cccnc12', 'pKi', '=', 6.40),
  ('O=C(Nc1cc2ccc(N3CCOCC3)nc2cc1N1CCCCC1)c1cnn2cccnc12', 'pKi', '=', 5.33);

###

Items are presented alongside their recorded IC50.
target: Interleukin-1 receptor-associated kinase 4 (Homo sapiens); assay: Inhibition of IRAK4 in human THP1-Xblue-MD2-CD14 cells assessed as reduction in LPS-induced NFkappaB transcription by measuring alkaline phosphatase level preincubated for 1 hr followed by LPS stimulation and measured after 20 hrs by quanti-blue reagent based reporter assay
METRIC NAME: IC50 (nM)

INSERT INTO measurements (compound, relational_operator, assay_value) VALUES
  ('CC1(C)Cc2cc(NC(=O)c3cnn4cc(C(F)F)cnc34)c(N3CCOCC3)cc2O1', '=', 1200),
  ('CC1(C)Cc2cc(NC(=O)c3cnn4cccnc34)c(N3CCC(CO)CC3)cc2O1', '=', 38),
  ('O=C(Nc1cc2[nH]c(N3CCOCC3)nc2cc1N1CCC(CO)CC1)c1cnn2cccnc12', '=', 250),
  ('CC1(C)Cc2cc(NC(=O)c3cnn4cc(OC(F)F)cnc34)c(N3CCOCC3)cc2O1', '>', 20000),
  ('CC1(C)Cc2cc(NC(=O)c3cnn4cccnc34)c(N3CCCC(O)CC3)cc2O1 (stereo not given)', '=', 130);
